Source of measurements: patent US20190218553

test target: von Willebrand factor (VWF) (Homo sapiens, UniProt P04275 P04275:764-2813)
procedure text: filter; Bmax 58%; 2 mM CaCl2, 37 C
condition summary: tags: factor VIII free, Haematologic Technologies Inc; label: 5'-32P
A collection of binders and their measured Kd
observable: Kd (nM)

- binder: "CCGAACUGCCCUCGAUCGACGCACAGACGG (ssRNA, mCmCmGmAmAmCmUmGfCfCfCmUmCmGmAmUmCmGmAfCrGfCmAmCmAmGmAmCmGmGidT) [DTRI-013]"
  observable: "Kd"
  units label: "nM"
  result value: 5.4
- binder: "ACGAACUGCCCUCAGCAUUAUUGCUGACGCACAGACGU (ssRNA, 2'-F C and U; 2'-OH A and G; 3' idT) [T52]"
  observable: "Kd"
  units label: "nM"
  result value: 16
- binder: "ACGAACUGCCCUCAGCUAUUUCAUUUGCUGACGCACAGACGU (ssRNA, 2'-F C and U; 2'-OH A and G; 3' idT) [T36]"
  observable: "Kd"
  units label: "nM"
  result value: 11
- binder: "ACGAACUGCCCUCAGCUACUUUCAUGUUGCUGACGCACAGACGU (ssRNA, rAfCrGmAmAfCfUrGfCfCfCfUfCrArGfCfUrAfCfUfUfUfCrAfUrGfUfUrGfCfUrGrAfCrGfCrAfCmAmGmAfCrGfU-idT) [T25 vrt5]"
  observable: "Kd"
  units label: "nM"
  result value: 7.1
